# TC50 HepG2 values compiled below
- Tested on: HepG2 human hepatocytes
- measurement.protocol: HepG2 cytotoxicity assay (MTS)
- Assay type: cell-based
- condition.info: 48 h, mean +/- SD

| smiles.text | TC50 HepG2 |
| --- | --- |
| C[C@]12C(=O)O[C@@H]3C=C4C(=CC(=O)O[C@@H]4O)[C@@](C)(CC[C@H]1O)[C@@H]32 | > 25 µM |
| CO[C@H]1OC(=O)C=C2[C@@]13O[C@@H]3[C@H]1OC(=O)[C@@]3(C)CCC[C@@]2(C)[C@@H]13 | > 25 µM |
| C[C@]1(C(=O)O)CCC[C@]2(C)C3=CC(=O)OCC3=CC[C@@H]12 | > 25 µM |
| CO[C@H]1OC(=O)C=C2C1=C[C@H]1OC(=O)[C@@]3(C)CCC[C@@]2(C)[C@@H]13 | 10.3 µM |
| C[C@@]12CCC[C@]3(C)c4cc(=O)occ4[C@H](O)[C@@H](OC1=O)[C@@H]23 | > 25 µM |
| C[C@@]12CCC[C@]3(C)C4=CC(=O)OC[C@]45O[C@@H]5[C@@H](OC1=O)[C@@H]23 | 17.1 µM |

----------
- measurement.protocol: Microsomal stability assay, mouse
- condition.info: microsomes, pH 7.4
- Method: Microsomal stability assay. The in vitro microsomal stability assay was conducted in duplicate in commercially available mouse or human liver microsomes (Sekisui XenoTech, Kansas City, KS, USA), which were supplemented with nicotinamide adenine dinucleotide phosphate (NADPH) as a cofactor. […] The reaction was initiated by the addition of 1 mmol/L NADPH, followed by incubation at 37 °C. […] The supernatants were collected and analyzed by LC-MS/MS to determine the in vitro metabolic half-life (t1/2).

| compound | half-life at 1 µmol/L / h |
| --- | --- |
| CO[C@H]1OC(=O)C=C2[C@@]13O[C@@H]3[C@H]1OC(=O)[C@@]3(C)CCC[C@@]2(C)[C@@H]13 [compound 1, oidiolactone A] | 1.84 |
